Entries and their measured IC50 follow.
assay: microbe, parasite or virus in culture; conditions: Mycobacterium tuberculosis, 96 h, read-out: pIC50 (converted)
The reply should be a number in µM, with the unit left off.

Ask: Which IC50 is listed for N#Cc1ccc(C(=O)NCC2CC2)cc1 ?
Result: 123

====

Reported IC50 values are given for each entry in this list.
experiment: microbe, parasite or virus in culture; conditions: Mycobacterium tuberculosis, 72 h, read-out: pIC50 (converted)

> print(dat)
                                   molecule  measurement
1  CC(=O)NCC(=O)N1CCc2nc(-c3ccccc3)nc(C)c2CC1    > 50.1 µM
2        Cc1ccccc1NC1CCN(C(=O)CCc2ccco2)CC1    > 50.1 µM
3    NCC1CCCN1CCc1ccccc1 (stereo not given)     > 501 µM

Ask: Can you share its IC50? I mean this molecule: CC(Sc1nnc[nH]1)C(=O)Nc1ccc(C#N)cc1 (stereo not given)
Result: > 501 µM

Ask: What does the data say about its IC50? Entry: COc1ncc(CN2CCOC(Cc3cccc4ccccc34)C2)cn1 (stereo not given)
Result: > 50.1 µM
